Assay system KAT5 (Homo sapiens); read-out recorded as IC50.

For orientation, consider the following solved cases.
Structure smiles string | Result
Cc1cc(-c2ccccc2)cc(C(=O)N2CC(S(=O)(=O)c3ccccc3)C2)c1F | > 100 µM
CNC(=O)c1ccc(S(=O)(=O)NNC(=O)c2cc(-c3ccccc3)cc(C)c2F)cc1 | 10 to 50 µM

With those in mind, consider the next molecule.
Please look up its IC50: COCC(=O)N1CCC(CS(=O)(=O)NNC(=O)c2cc(-c3ccccc3)cc(C)c2F)CC1
≤ 10 µM

* * *

Assay system KAT6A (Homo sapiens); read-out recorded as IC50.

Enter reported IC50 observed with KAT6A (Homo sapiens) for O=S(=O)(NNc1n[nH]c2cccc(F)c12)c1ccccc1
Sequence (Q92794 with tags, fused parts or gaps): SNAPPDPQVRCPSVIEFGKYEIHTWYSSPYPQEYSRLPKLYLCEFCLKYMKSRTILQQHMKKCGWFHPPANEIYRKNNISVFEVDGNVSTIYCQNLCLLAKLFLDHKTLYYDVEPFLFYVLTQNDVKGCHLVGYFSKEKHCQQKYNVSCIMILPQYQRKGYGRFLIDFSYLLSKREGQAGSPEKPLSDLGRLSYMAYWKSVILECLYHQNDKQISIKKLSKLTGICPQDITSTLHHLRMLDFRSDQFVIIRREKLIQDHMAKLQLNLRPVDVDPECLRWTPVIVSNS
> 100 µM

// repeat for CCC(=O)N1CCCC(CS(=O)(=O)NNC(=O)c2cc(-c3ccccc3)cc(C)c2F)C1 (stereo not shown) and report
≤ 10 µM

// repeat for CCS(=O)(=O)NNC(=O)c1cc(-c2ccccc2)cc(C)c1F and report
10 to 50 µM

* * *

System name: KAT5 (Homo sapiens, UniProt Q92993)
Sequence (Q92993 with tags, fused parts or gaps): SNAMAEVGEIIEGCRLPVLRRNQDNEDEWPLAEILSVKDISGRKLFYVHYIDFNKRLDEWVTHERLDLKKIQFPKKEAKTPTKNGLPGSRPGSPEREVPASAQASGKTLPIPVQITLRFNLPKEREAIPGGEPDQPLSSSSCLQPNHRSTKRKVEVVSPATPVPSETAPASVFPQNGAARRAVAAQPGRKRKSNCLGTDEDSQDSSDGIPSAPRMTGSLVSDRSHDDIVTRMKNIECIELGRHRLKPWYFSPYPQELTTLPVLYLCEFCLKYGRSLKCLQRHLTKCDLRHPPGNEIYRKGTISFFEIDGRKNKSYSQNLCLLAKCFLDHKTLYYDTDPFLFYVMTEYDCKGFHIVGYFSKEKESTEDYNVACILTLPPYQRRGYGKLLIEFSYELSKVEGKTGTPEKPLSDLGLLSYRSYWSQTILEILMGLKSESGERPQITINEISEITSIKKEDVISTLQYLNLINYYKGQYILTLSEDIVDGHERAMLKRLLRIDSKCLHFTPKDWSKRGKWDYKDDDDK
Catalogue of IC50 values

Molecule | System name | IC50
Cc1cc(-c2ccccc2)cc(C(=O)NNS(=O)(=O)c2ccc(O)cc2)c1F [Compound I-211] | KAT5 (Homo sapiens, UniProt Q92993) | ≤ 10 µM
Cc1cc(-c2ccccc2)cc(C(=O)NNS(=O)(=O)CC2CCCN(CCO)C2)c1F (stereo not drawn) [Compound I-339] | KAT5 (Homo sapiens, UniProt Q92993) | 10 to 50 µM

With those in mind, consider the next molecule.
Please look up its IC50: Cc1cc(-c2ccccc2)cc(C(=O)NNS(=O)(=O)C2CCN(CCc3ccccc3)C2)c1F (stereo not drawn) [Compound I-36]
10 to 50 µM

* * *

Assay system KAT5 (Homo sapiens, UniProt Q92993); read-out recorded as IC50.

For orientation, consider the following solved cases.
Compound | System name | Result
O=C(NNS(=O)(=O)C1CCCCC1)c1cc(-c2cc(Cl)cc(Cl)c2)cc(Cl)c1F [Compound I-487] | KAT5 (Homo sapiens, UniProt Q92993) | 10 to 50 µM
O=C(NNS(=O)(=O)C1CCOCC1)c1cc(-c2ccc(O)cc2)cc(Cl)c1F [Compound I-459] | KAT5 (Homo sapiens, UniProt Q92993) | > 100 µM
O=C(NNS(=O)(=O)C1CCOCC1)c1cc(CO)cc(Cl)c1F [Compound I-465] | KAT5 (Homo sapiens, UniProt Q92993) | > 100 µM

Please look up its IC50: Cc1cccc(S(=O)(=O)NNC(=O)c2cc(-c3ccccc3)ccc2F)c1 [Compound I-131]
> 100 µM

// repeat for O=C(NNS(=O)(=O)c1ccccc1)c1cc(Cl)ccc1F [Compound I-153] and report
10 to 50 µM

// repeat for CC(=O)N1CCCC(S(=O)(=O)NNC(=O)c2cc(-c3ccccc3)cc(C)c2F)C1 (stereo not drawn) [Compound I-102] and report
10 to 50 µM

// repeat for CCc1cc(C)c(F)c(C(=O)NNS(=O)(=O)C2CCCCC2)c1 [Compound I-300] and report
10 to 50 µM

// repeat for O=C(NNS(=O)(=O)c1ccccc1)c1c(F)ccc(-c2ccccc2)c1F [Compound I-10] and report
> 100 µM

// repeat for CNCCC(=O)N1CCC(CS(=O)(=O)NNC(=O)c2cc(-c3cccc(F)c3)cc(C)c2F)CC1 [Compound I-389] and report
10 to 50 µM
